These measurements were taken from patent US20150080461A1.

test: MTT cytotoxicity assay on Vero cells; format: cell-based; details: African green monkey, read-out: CC50, cytotoxicity effect against Vero cells
Attribute Measured: CC50

## Input Dear colleague, I am looking for the recorded CC50 of the following compound: O=c1c(O)c(-c2ccc(O)c(O)c2)oc2cc(O)cc(O)c12
## Output 253 µg/mL
